Parameter % inhibition: see the listing below.
# tested-target: T1, recombinant human EGFR extracellular domain with 6xHis (human, UniProt P00533 25-645)
# T1 construct: In-house produced; also called 6xHis EGFR ECD; soluble human EGFR ECD; not shown: 6xHis tag
# method-summary: SPR competition, competitor 1260
State the answer as a number, implicitly in %.

{"binder": "antibody 992 (antibody, human IgG1, kappa, V domains shown, Chimeric mouse/human IgG1 kappa; the VL entry includes the human kappa constant region) VH: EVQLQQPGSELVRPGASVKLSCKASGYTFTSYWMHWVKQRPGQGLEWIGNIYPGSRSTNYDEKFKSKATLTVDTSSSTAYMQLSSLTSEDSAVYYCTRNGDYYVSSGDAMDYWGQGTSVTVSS VL: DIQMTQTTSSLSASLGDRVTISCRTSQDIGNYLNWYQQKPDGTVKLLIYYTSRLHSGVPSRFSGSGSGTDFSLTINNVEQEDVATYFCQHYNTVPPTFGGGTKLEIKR", "experimental-readout": "% inhibition", "unit-text": "%", "data-value": -10}

Proceed to the following item.
Please indicate % inhibition recorded for antibody 1257 (antibody, human IgG1, kappa, V domains shown, Chimeric IgG1 kappa) VH: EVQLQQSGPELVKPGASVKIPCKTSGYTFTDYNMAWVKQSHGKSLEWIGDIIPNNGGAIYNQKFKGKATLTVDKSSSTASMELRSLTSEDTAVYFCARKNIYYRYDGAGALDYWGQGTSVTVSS VL: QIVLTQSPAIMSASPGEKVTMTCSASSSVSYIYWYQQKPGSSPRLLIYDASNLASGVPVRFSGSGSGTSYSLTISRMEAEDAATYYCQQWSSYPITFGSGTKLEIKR 68
